Item-by-item account of absorbance
- subject-of-test: MBP
- protocol-summary: ELISA

| binder | absorbance |
| --- | --- |
| KPEP11_12 (antibody, V domains shown, Rabbit IgG; also called anti-human EphA4 rabbit monoclonal antibody KPEP11_12) VH: QSLEESGGRLVTPGTPLTLTCTVSGFSLSSYHMSWVRQAPGKGLEWIGIIYRSGNTYYANWAKGRFTISKTSTTVDLKITSPTTEDTATYFCARESSTFYGMDLWGPGTLVTVSS VL: YVMMTQTPSSVSAAVGGTVTINCQASQSVYGNNELAWYQQKPGQRPKLLIYRASTLASGVPSRFKGSGSGTEFTLTISDLECADAATYYCLGYKSDDYTFGGGTKVEIKG | 0.302 |
| KPEP11_13 (antibody, V domains shown, Rabbit IgG; also called anti-human EphA4 rabbit monoclonal antibody KPEP11_13) VH: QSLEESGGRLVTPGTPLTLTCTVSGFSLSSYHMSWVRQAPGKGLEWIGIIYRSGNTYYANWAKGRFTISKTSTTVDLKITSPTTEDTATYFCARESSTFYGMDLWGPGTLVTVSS VL: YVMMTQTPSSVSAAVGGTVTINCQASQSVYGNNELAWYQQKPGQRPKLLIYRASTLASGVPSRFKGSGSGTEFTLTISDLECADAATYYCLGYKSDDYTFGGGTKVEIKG | 0.402 |
| KPEP11_09 (antibody, V domains shown, Rabbit IgG; also called anti-human EphA4 rabbit monoclonal antibody KPEP11_09) VH: QSVEESGGRLVTPGTPLTLTCTVSGFSLSSYHMSWVRQAPGKGLEWIGIIYRSGNTYSANWAKGRFTISKTSTTVDLKITSPTTEDTATYFCARESSTFYGMDLWGPGTLVTVSS VL: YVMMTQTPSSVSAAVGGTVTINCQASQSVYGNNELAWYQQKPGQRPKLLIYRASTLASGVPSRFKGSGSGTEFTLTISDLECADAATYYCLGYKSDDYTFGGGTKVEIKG | 0.291 |

Reference source for all entries: patent US20240385190A1
